Entry source: the array DNA melting data of Ke et al. (doi:10.1101/2024.01.08.574731)

# ASSAY TEXT: folding enthalpy; higher = less favourable; fluorescence melt of hairpins on a sequencing array, two-state fit
# TEST SETTINGS: sodium 0.088 M
# folding enthalpy annotations

RECORD SEQUENCE	folding enthalpy
CGGAGTCGGAAACGACCG (((..(((....))))))	-15.9 kcal/mol
GTCCAAGGAAACTCGGAC ((((.((....)).))))	-30.6 kcal/mol
GATCGGCAGCCGATC ((((((...))))))	-50.7 kcal/mol
GACAGTGGAAACACCATC ((..(((....)))..))	-10.3 kcal/mol
GTCCTCGGAAACGGGGAC ((((.((....)).))))	-45.3 kcal/mol
GGAGATCCGAAAGGATCC (((..(((....))))))	-9.31 kcal/mol
GGCAACGAAAGTTAAGCC ((((((....)))..)))	-24 kcal/mol
GTGCGTCGAAAGACACAC (((.(((....))).)))	-39 kcal/mol
GATCTGTGCCCAGATC ((((((....))))))	-30.6 kcal/mol
GCGTAGGGAAACTTACGC (((((.(....).)))))	-39.4 kcal/mol
GGCGTCGAAAGACACGCC ((((((....)))..)))	-32 kcal/mol
GCACCGCGAAAGCGCAGC ((..(((....)))..))	-9.35 kcal/mol

---

# ASSAY TEXT: melting temperature; fluorescence melt of hairpins on a sequencing array, two-state fit, raised by 9.35 °C to match UV melts
# TEST SETTINGS: sodium 0.088 M

RECORD SEQUENCE	Tm [°C]
GCCAGCGGAAACGCTGAC (.(((((....))))).)	51.5
GCGTTGGGAAACCAGTGC ((..(((....)))..))	36.5
GGGGGCGAAAGCCAGCCC ((((((....)))..)))	51.8
GTTTAGCGAAAGCTAAC (((.(((....))))))	44.1
GCTGCCGAAAGGCTCAGC ((((((....)))..)))	44.4
GCAAGCGAAAGCTCATGC ((((((....)))..)))	35.2
GATCAAGCTCTTGATC ((((((....))))))	48.3
GGAGACGGAAACGTCTTC (.(((((....))))).)	50.7
GAACACGGAAACGTGTTC (((((((....)))))))	67.5
GGCGACCCGAAAGGGGCC (((..(((....))))))	54.6
GTGGCCGAAAGGCCGCAC ((((((....)))..)))	62.9
GTTCTAGGAAACTAGAAC (((((((....)))))))	53.1
CGCTGCGGAAACGCCGCG (((.(((....))).)))	56.5
GACTATGCGAAAGCAGTC (((..(((....))))))	44
GATCTTGGAAACAAGGTC ((.((((....)))).))	44.2
GCGCTACGAAAGTACGC (((.(((....))))))	55.3
GGGTTTGGAAACAAGTCC ((..(((....)))..))	30.4
GCGCGTCGAAAGACTCGC (((.(((....))).)))	58.4
GCGTTTTACGC ((((...))))	60.6
GCAATATCGAAAGATTGC (((..(((....))))))	39.5
GATCTCGTCGGAGATC ((((((....))))))	54.5
GGCACTCCGAAAGGAGCC (((..(((....))))))	35.2
GTGAAGGGAAACCTTCGC (.(((((....))))).)	50.2
GAGCTGCGAAAGCACTC (((.(((....))))))	46.2
GATCGATAATTCGATC ((((((....))))))	51.2
GATAACGAAAGTTCATC ((((((....))).)))	26.2
GAGACTGAAAAGTCTC ((((((....))))))	57.5
GCCCGTGGAAACGTGGGC ((((..(....)..))))	54.9
CGATTACGGAAACGTTCG (((..(((....))))))	38.5
GTATCGGGAAACCGACAC ((.((((....)))).))	39.3
GATCGCTCGCGCGATC ((((((....))))))	67.4
GTAAGCGAAAGCTTTTAC ((((((....)))..)))	29.7
GATAGGGAAACCTATC ((((((....))))))	47.6
GCTAAGCGAAAGCTGTGC ((..(((....)))..))	48.6
GCCCCCGGAAACGGAGGC (((.(((....))).)))	54.9
GCCTAGCGAAAGCTCTGC ((..(((....)))..))	34.3
GAAACCGGAAACGGCTTC (((.(((....))).)))	42
GCTCGCGAAAGCGCAGC ((((((....))).)))	54.4
GCCATACGAAAGTACGGC (((.(((....))).)))	51.5
GGCCGAGGAAACTCGGTC (.(((((....))))).)	64.4
GTCCTTGCGAAAGCAGAC (((..(((....))))))	32.3
GATCCTGGCTAGGATC ((((((....))))))	57.5
GCTACCCGAAAGGGCAGC (((.(((....))).)))	57.8
GCAATAGGAAACTGTTGC ((((.((....)).))))	47.4
GATCGACTTTTCGATC ((((((....))))))	51.6
GATCACATCGGTGATC ((((((....))))))	57
GTTTGCGGAAACGTAAGC (.((.((....)).)).)	33
GGCTTCGAAAGAAGCGCC ((((((....)))..)))	57
CGATACGGAAACGTTTCG (((.(((....))).)))	45.9
GTGCTGGGAAACTGGCAC ((((..(....)..))))	49.7

---

# ASSAY TEXT: folding enthalpy; higher = less favourable; fluorescence melt of hairpins on a sequencing array, two-state fit
# TEST SETTINGS: sodium 0.088 M
# folding enthalpy annotations
MEASURED ENDPOINT: folding enthalpy (kcal/mol)

RECORD SEQUENCE	MEASURED VALUE
GAGCAGGAAACTGCTC ((((((....))))))	-37.8
GATCAAGTTATTGATC ((((((....))))))	-35.8
GCAGGGGGAAACTCCTGC (((((.(....).)))))	-43.4
GCACTAGGAAACTAGCGC ((.((((....)))).))	-33.4
GGGAGCGAAAGCTTCCC ((((((....))).)))	-20.5
GGTCCCGAAAGGGCCACC ((((((....)))..)))	-11.7
GGTTACGAAAGTACACC ((((((....))).)))	-22.7
GCATAGGCGAAAGCCTGC (((..(((....))))))	-13.5
GATGCAGGAAACTGCGTC ((.((((....)))).))	-44.7
GTTTAGTCGAAAGACAAC (((..(((....))))))	-10.8
GTTAACGAAAGTTAAAAC ((((((....)))..)))	-9.6
GCCTCCTCGAAAGAGGGC (((..(((....))))))	-9.35
GCTTTCTCGAAAGAGAGC (((..(((....))))))	-17.8
GTGTCCGAAAGGACGCAC ((((((....)))..)))	-10.4
GTTGGGACGAAAGTCAAC (((..(((....))))))	-19.6
GCGCTGCGAAAGCGCCGC (((..((....))..)))	-9.61
GAACTGACGAAAGTCTTC (((..(((....))))))	-8.83
GCATGCCGAAAGGCTTGC (((.(((....))).)))	-26.9
GAACACCGAAAGGTATTC (((.(((....))).)))	-25
GGGCCTCGAAAGAGCCC (((.(((....))))))	-37.9
GAGCTGCGAAAGCACTC (((.(((....))))))	-20.4
CGAGAGAAATCTCG (((((....)))))	-23.9
GGCAGCGGAAACGCTGTC (.(((((....))))).)	-17.6
GATCCGCCGCGGATC ((((((...))))))	-40.5
GGCGACGAAAGTCATGCC ((((((....)))..)))	-27.2

---

# Tm annotations
# ASSAY TEXT: melting temperature; fluorescence melt of hairpins on a sequencing array, two-state fit, raised by 9.35 °C to match UV melts
# TEST SETTINGS: sodium 0.088 M
MEASURED ENDPOINT: Tm (°C)

RECORD SEQUENCE	UNIT TAG	MEASURED VALUE
GGCACCGAAAGGTCCGCC ((((((....)))..)))	°C	55.2
GTACGCGGAAACGTGTGC (.((.((....)).)).)	°C	46.2
GGGACCGAAAGGTACCC ((((((....))).)))	°C	64.1
GCGAAATTCGC ((((...))))	°C	43.1
GATCTTCCAGAAGATC ((((((....))))))	°C	46
GTAGGCCGAAAGGCATAC (((.(((....))).)))	°C	61.9
GACGACGGAAACATCGTC (((((.(....).)))))	°C	45.7
GCGATGGTCGC ((((...))))	°C	47.8
GTTAACGAAAGTTAAAAC ((((((....)))..)))	°C	30.2
GATCACTGAGTGATC ((((((...))))))	°C	55.2
GAAGTGGAAACACTTC ((((((....))))))	°C	54
GATCACGAAAGTGGTATC ((((((....)))..)))	°C	34.1
